# credit: patent US20240366598A1

target or system: human Glucose-dependent Insulinotropic Polypeptide Receptor (hGIPR) (Homo sapiens)
Sequence (P48546 22-466): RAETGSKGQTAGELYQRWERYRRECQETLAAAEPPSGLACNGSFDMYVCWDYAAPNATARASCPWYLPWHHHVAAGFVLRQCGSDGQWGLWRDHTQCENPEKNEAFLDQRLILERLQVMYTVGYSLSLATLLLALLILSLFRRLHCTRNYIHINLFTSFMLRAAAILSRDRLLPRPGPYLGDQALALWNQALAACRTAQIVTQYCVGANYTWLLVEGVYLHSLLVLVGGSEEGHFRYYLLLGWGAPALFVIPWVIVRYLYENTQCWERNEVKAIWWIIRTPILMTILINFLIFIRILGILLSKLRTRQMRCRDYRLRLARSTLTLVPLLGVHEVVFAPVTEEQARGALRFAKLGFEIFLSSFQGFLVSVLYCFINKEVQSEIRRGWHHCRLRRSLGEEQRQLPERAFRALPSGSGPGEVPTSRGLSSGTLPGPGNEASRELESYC
assay explanation: Functional in vitro GIPR antagonist potency assay (cAMP HTRF, CHO-K1 cells stably expressing hGIPR, hGIP stimulation at about EC80)
run conditions: geometric mean, hGIP at estimated EC80, examples marked ^2: overall geometric mean of multiple forms (including salts) tested
recorded metric: IC50 (nM)
Quick reminder: number only, in nM, skip the unit.

Suppose we examine the compound Cc1cc(NC(=O)N2CCC[C@@H]2C(=O)Nc2ccc(-c3ccc(C(=O)O)cc3)cc2)ccc1C1CC1 [Example 144] ; what IC50 value has been reported?
6.1

Could you do the same for Cc1c(C(=O)O)ccc(-c2ccc(NC(=O)[C@H]3CCCN3C(=O)Nc3ccc(C(C)C)cc3)cc2)c1F [Example 87] , please?
11

Could you do the same for CC(C)c1ccc(NC(=O)N2CCC[C@@H]2C(=O)Nc2ccc(-c3ccc(C(=O)O)nc3)cc2)cc1F [Example 208] , please?
4.9

---

Would you mind telling me the reported pIC50 of each entry?
target or system: UniProt:P48546
assay explanation: Functional in vitro GIPR antagonist potency assay (cAMP HTRF, CHO-K1 cells stably expressing hGIPR, hGIP stimulation at about EC80)
run conditions: geometric mean, hGIP at estimated EC80, examples marked ^2: overall geometric mean of multiple forms (including salts) tested
Counter-ions that a name gives are not always drawn.
Scale: pIC50 equals -log10([C]), with [C] in mol/L.

Tell me reported pIC50 for `Cc1cc(-c2ccc(NC(=O)[C@H]3CCCN3C(=O)Nc3ccc(C(C)C)cc3)cc2)cnc1C(=O)O` , tested with UniProt:P48546.
7.30

Could you do the same for CC(C)c1ccc(NC(=O)N2CCC[C@@H]2C(=O)Nc2ccc3c(n2)CC[C@@H](C(=O)O)C3)cc1F (single isomer, unassigned) [Example 229] , please?
7.96

Could you do the same for `CC(C)c1ccc(NC(=O)N2CCC[C@@H]2C(=O)Nc2ccc(-c3cccc(C(N)=O)c3)cc2)cc1` , please?
6.62

Could you do the same for Cc1cc(NC(=O)N2CCC[C@@H]2C(=O)Nc2ccc(-c3ccc(C(=O)O)nc3C)cc2)ncc1C(C)C [Example 216, trifluoroacetate salt] , please?
7.19

Could you do the same for `CC(C)Cc1ccc(CNC(=O)N2CCC[C@@H]2C(=O)Nc2ccc(-c3ccc(C(=O)O)cc3)cc2)cc1` , please?
8.01

Could you do the same for O=C(O)[C@@H]1CCc2nc(NC(=O)[C@H]3CCCN3C(=O)Nc3ccc(C(F)(F)F)c(F)c3)ccc2C1 (single isomer, unassigned) [Example 220] , please?
7.33

---

Would you mind telling me the reported log10 IC50 of each entry?
target or system: human Glucose-dependent Insulinotropic Polypeptide Receptor (hGIPR) (Homo sapiens, UniProt P48546)
Sequence (P48546 22-466): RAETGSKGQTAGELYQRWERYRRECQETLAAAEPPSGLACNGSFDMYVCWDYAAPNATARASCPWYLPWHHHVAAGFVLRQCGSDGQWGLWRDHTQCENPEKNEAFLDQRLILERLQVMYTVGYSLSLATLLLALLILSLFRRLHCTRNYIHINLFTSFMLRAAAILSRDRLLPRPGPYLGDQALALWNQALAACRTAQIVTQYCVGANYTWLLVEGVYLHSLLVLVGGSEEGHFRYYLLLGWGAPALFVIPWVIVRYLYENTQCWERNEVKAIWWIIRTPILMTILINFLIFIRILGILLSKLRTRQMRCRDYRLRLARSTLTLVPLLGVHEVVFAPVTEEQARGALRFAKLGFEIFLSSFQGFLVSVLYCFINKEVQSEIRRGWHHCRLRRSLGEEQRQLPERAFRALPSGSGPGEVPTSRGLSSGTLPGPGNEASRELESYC
assay explanation: Functional in vitro GIPR antagonist potency assay (cAMP HTRF, CHO-K1 cells stably expressing hGIPR, hGIP stimulation at about EC80)
run conditions: geometric mean, hGIP at estimated EC80, examples marked ^2: overall geometric mean of multiple forms (including salts) tested
On a log10 scale: recorded IC50, unit nM.

Suppose we examine the compound `Cc1cc(C2CC2)ccc1NC(=O)N1CCC[C@@H]1C(=O)Nc1ccc(-c2ccc(C(=O)O)cc2)cc1` ; what log10 IC50 value has been reported?
2.11

Could you do the same for `O=C(O)c1ccc(-c2ccc(NC(=O)[C@H]3CCCN3C(=O)Nc3ccc(C4CCCCC4)cc3)cc2)cc1` , please?
1.60

Could you do the same for `O=C(O)c1ccc(-c2ccc(NC(=O)[C@H]3CCCN3C(=O)NCc3ccc(C(F)(F)F)c(Cl)c3)cc2)cc1` , please?
1.04

Could you do the same for `CC(C)c1ccc(NC(=O)N2CCC[C@@H]2C(=O)Nc2ccc(-c3ccc(O)c(F)c3)cc2)cc1` , please?
2.15

Could you do the same for `O=C(O)c1ccc(-c2ccc(NC(=O)[C@H]3CCCN3C(=O)NCc3ccc(C(F)F)cc3)cc2)cc1` , please?
1.99

Could you do the same for `N#Cc1cc(CNC(=O)N2CCC[C@@H]2C(=O)Nc2ccc(-c3ccc(C(=O)O)cc3)cc2)ccc1Cl` , please?
2.86

Could you do the same for `Cc1nc(C(=O)O)ccc1-c1ccc(NC(=O)[C@H]2CCCN2C(=O)NCc2ccc(C(C)C)cc2)cc1` , please?
1.15

---

target or system: human Glucose-dependent Insulinotropic Polypeptide Receptor (hGIPR) (Homo sapiens)
Sequence (P48546 22-466): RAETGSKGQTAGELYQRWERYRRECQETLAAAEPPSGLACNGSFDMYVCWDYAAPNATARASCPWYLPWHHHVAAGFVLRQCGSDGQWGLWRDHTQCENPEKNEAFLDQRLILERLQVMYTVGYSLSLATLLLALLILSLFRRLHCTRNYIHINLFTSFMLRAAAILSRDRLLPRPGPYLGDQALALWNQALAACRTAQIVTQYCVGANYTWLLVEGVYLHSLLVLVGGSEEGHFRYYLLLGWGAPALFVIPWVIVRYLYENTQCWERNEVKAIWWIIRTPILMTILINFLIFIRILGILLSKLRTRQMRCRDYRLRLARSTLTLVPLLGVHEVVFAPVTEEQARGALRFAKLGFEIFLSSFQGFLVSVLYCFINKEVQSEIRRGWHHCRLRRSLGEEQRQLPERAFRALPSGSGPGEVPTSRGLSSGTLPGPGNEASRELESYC
assay explanation: Functional in vitro GIPR antagonist potency assay (cAMP HTRF, CHO-K1 cells stably expressing hGIPR, hGIP stimulation at about EC80)
run conditions: geometric mean, hGIP at estimated EC80, examples marked ^2: overall geometric mean of multiple forms (including salts) tested
Would you mind telling me the reported pIC50 of each entry?
Scale: pIC50 equals -log10([C]), with [C] in mol/L.

Suppose we examine the molecule `CC(C)c1ccc(CNC(=O)N2CCC[C@@H]2C(=O)Nc2ccc(-c3ccc(C(=O)O)cc3)cc2)cc1` ; what pIC50 value has been reported?
8.29

Could you do the same for `Cc1cc(-c2ccc(NC(=O)[C@H]3CCCN3C(=O)NCc3ccc(C(F)(F)F)c(F)c3)nc2)ccc1C(=O)O` , please?
8.00

Could you do the same for `CC(C)c1ccc([C@H](C)NC(=O)N2CCC[C@@H]2C(=O)Nc2ccc(-c3ccc(C(=O)O)cc3)cc2)cc1` , please?
7.24

Could you do the same for `O=C(O)c1ccc(-c2ccc(NC(=O)[C@H]3CCCN3C(=O)NCc3cnc(C(F)(F)F)nc3)cc2)cc1` , please?
6.59

Could you do the same for `Cc1cc(-c2ccc(NC(=O)[C@H]3CCCN3C(=O)NCc3ccc(C(F)(F)F)cc3)nc2)ccc1C(=O)O` , please?
7.92

Could you do the same for `Cc1cc(-c2ccc(NC(=O)[C@H]3CCCN3C(=O)Nc3ccc(C(C)C)c(C)c3)nc2)ccc1C(=O)O` , please?
8.38

Could you do the same for `CC(C)c1ccc(NC(=O)N2CCC[C@@H]2C(=O)Nc2ccc(-c3ccc(C(=O)O)cc3)cc2F)cc1` , please?
8.19
